Target: T1, rat DLL4 extracellular domain (rat, UniProt D3ZHH1 28-530)
T1 construct: extracellular domain; also called ratDLL4 ECD
T1 sequence (D3ZHH1 28-530): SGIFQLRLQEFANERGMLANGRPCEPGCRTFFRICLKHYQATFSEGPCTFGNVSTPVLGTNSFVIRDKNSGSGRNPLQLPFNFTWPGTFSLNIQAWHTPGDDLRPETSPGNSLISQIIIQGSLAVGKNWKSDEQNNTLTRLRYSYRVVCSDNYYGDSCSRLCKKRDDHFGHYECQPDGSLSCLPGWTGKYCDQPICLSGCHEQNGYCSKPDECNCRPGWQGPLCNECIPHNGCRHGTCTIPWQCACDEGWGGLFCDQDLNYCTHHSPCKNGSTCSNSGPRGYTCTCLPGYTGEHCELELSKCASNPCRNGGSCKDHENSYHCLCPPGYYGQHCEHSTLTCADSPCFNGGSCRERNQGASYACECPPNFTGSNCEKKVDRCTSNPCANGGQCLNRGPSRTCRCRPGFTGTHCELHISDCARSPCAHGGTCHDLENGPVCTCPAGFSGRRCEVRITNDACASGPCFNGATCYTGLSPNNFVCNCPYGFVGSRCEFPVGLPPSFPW
Assay: SPR (Biacore)
endpoint label: koff (s⁻¹)
Numbers only, in s⁻¹.

- binder: "h1A11.E12 (antibody, V domains shown, also called h1A11.E12 VH / h1A11.E12 VL) VH: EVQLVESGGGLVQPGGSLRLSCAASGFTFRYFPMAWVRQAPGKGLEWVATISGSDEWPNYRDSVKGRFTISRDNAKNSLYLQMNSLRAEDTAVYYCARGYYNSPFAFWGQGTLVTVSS VL: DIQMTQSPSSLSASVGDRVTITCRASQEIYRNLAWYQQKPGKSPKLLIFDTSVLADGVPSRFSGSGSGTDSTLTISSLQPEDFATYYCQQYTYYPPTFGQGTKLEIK"
  koff, s⁻¹: 0.000175
- binder: "h1A11.B5 (antibody, V domains shown, also called h1A11.B5 VH / h1A11.B5 VL) VH: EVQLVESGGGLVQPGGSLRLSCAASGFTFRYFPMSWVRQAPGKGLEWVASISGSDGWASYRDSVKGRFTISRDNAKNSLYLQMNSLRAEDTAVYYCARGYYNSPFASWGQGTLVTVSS VL: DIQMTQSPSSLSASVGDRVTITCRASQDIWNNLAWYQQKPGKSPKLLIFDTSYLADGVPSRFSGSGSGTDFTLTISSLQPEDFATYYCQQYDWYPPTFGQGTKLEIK"
  koff, s⁻¹: 0.0397

Then there is this binder:
# koff (binder: h1A11.A6 (antibody, V domains shown, also called h1A11.A6 VH / h1A11VL.1) VH: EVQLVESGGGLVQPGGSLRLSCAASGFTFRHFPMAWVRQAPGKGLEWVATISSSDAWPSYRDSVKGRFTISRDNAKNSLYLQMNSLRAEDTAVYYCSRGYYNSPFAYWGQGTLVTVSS VL: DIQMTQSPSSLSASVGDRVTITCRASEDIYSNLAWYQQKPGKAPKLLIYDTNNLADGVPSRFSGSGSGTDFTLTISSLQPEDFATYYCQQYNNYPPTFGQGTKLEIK ) is 0.000772

This collection of values is drawn from patent US20110217237A1.
